# key: entry, value: kdis
- TARGET SYSTEM: T1, human SIRPγ-His monomer protein (human, UniProt Q9P1W8 29-360)
- T1 construct: also called hSIRPγ
- T1 sequence (Q9P1W8 29-360 limits assumed): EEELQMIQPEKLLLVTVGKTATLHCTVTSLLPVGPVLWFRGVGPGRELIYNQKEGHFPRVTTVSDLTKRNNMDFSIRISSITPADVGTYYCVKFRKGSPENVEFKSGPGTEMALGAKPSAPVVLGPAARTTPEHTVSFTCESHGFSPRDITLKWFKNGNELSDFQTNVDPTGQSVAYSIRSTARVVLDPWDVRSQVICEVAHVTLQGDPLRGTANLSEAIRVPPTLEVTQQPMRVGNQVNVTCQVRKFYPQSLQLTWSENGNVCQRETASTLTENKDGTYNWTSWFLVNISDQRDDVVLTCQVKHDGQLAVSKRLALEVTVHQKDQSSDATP
- EXPERIMENT: BLI Octet, V5-scFv PPE captured, SIRP-His 500 nM

Some entries whose results are on file:
1) Antibody 44 (scFv, V domains shown, scFv in crude PPE, V5/myc-tagged) VH: QVQLVQSGAEVKKPGSSVKVSCKASGGTFSKIAVSWVRQAPGQGLEWMGLINPNSGGTDYAQKFQGRVTITADESTSTAYMELSSLRSEDTAVYYCAKDFRGGDYYYYGMDVWGQGTTVTVSS VL: EIVMTQSPATLSVSPGERATLSCRASQSVSSNLAWYQQKPGQAPRLLIYGASTRATGIPARFSGSGSGTEFTLTISSLQSEDFAVYYCQQYNTYPITFGQGTKVEIK | > 0.01 s⁻¹
2) Antibody 31 (scFv, V domains shown, scFv in crude PPE, V5/myc-tagged) VH: QVQLVQSGAEVKKPGASVKVSCKASGGTFRSYAISWVRQAPGQGLEWMGWMNPNSGNTGYAQKFQGRVTMTRDTSTSTVYMELSSLRSEDTAVYYCARESVLKGGMDVWGQGTTVTVSS VL: DIVMTQSPDSLAVSLGERATINCRSSQSLFHSSTNANNLAWYQQKPGQPPKLLIYWASTRESGVPDRFSGSGSGTDFTLTISSLQAEDVAVYYCQQYYITPLTFGQGTRLEIK | 0.001 to 0.01 s⁻¹
3) Antibody 13 (scFv, V domains shown, scFv in crude PPE, V5/myc-tagged) VH: EVQLLESGGGLVQPGGSLRLSCAASGFTFSNSDMNWVRQAPGKGLEWVSYISSSGNTIYYADSVKGRFTISRDNSKNTLYLQMNSLRAEDTAVYYCARSNWNYPLDYYYMDVWGKGTTVTVSS VL: DIVMTQSPLSLPVTPGEPASISCRSSQSLLHSNGYNYLDWYLQKPGQSPQLLIYAASSLQSGVPDRFSGSGSGTDFTLKISRVEAEDVGVYYCMQGTHWPPTFGQGTKVEIK | 0.001 to 0.01 s⁻¹

So what does the record say about kdis for Antibody 30 (scFv, V domains shown, scFv in crude PPE, V5/myc-tagged) VH: QVQLVQSGAEVKKPGASVKVSCKASGYTFTNFDINWVRQAPGQGLEWMGWISAYNGHTNYAQNLQGRVTMTRDTSTSTVYMELSSLRSEDTAVYYCAQEAAAGYFDYWGQGTLVTVSS VL: DIQMTQSPSSLSASVGDRVTITCRASQDIRNDLAWYQQKPGKAPKLLIYDASNLETGVPSRFSGSGSGTDFTLTISSLQPEDFATYYCQQSYGTPYTFGQGTKLEIK ?
0.001 to 0.01 s⁻¹

Query Antibody 26 (scFv, V domains shown, scFv in crude PPE, V5/myc-tagged) VH: QVQLVQSGAEVKKPGASVKVSCKASGYTFTSYYMHWVRQAPGQGLEWMGRINPNSGGTKYAQKFQGRVTMTRDTSTSTVYMELSSLRSEDTAVYYCARLGSAYFDLWGRGTLVTVSS VL: DIQMTQSPSSLSASVGDRVTITCRASQSVDTWLAWYQQKPGKAPKLLIYEASTLESGVPSRFSGSGSGTDFTLTISSLQPEDFATYYCQQANSFPITFGQGTRLEIK next
0.001 to 0.01 s⁻¹
